# credit: patent US20240116985A1

EC50 values for the binders below.
# measurement target: full-length beta-Catenin (Uniprot ID P35222) (Homo sapiens (Human)) (UniProt P35222)
# Sequence (P35222 2-781 limits assumed): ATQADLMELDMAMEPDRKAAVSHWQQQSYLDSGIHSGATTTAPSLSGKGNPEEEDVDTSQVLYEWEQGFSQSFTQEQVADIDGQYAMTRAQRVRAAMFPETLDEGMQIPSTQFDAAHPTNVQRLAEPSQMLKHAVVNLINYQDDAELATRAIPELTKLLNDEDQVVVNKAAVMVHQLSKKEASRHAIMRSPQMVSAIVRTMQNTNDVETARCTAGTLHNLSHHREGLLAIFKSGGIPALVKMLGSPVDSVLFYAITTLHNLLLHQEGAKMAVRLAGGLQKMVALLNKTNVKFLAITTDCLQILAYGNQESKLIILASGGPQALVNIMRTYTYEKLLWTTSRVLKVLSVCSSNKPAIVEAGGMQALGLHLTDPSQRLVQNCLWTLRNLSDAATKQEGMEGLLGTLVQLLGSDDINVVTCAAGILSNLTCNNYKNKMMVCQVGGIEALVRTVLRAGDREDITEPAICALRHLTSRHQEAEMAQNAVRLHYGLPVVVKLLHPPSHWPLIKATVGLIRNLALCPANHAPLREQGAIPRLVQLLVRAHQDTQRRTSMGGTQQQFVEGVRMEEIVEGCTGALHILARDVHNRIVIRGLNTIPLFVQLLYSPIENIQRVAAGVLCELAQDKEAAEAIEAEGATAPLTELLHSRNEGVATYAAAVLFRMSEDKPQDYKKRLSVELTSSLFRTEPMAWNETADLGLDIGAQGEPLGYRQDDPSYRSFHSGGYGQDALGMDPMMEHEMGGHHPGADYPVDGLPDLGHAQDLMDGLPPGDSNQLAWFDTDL
# test: fluorescence polarization competition, 5FAM-TCF4 10-53 probe on full-length beta-catenin
Starred links: 1 amine or outer side, 2 acyl side, 3 side chain; linkers in the order of their positions; H or OH if unused. Positions of bridges follow the written chain, without caps; N, C: chain ends. Non-standard residues stand in square brackets, D forms with d. Primed or numbered codes have the meaning given here. PyrS2″ = (S)-3-amino-1-((pent-4-en-1-yloxy)carbonyl)pyrrolidine-3-carboxylic acid (stapling residue), C=CCCCOC(=O)N1CC[C@@](N[*:1])(C(=O)[*:2])C1; B5(4) = 2,2-bis(4-pentenyl)glycine = 2-amino-2-(pent-4-en-1-yl)hept-6-enoic acid (stitching residue), C=CCCCC(CCCC=C)(N[*:1])C(=O)[*:2]; Ala(morpholin-4-yl) = N[C@@H](CN1CCOCC1)C(=O)O; Phe(2-Cl) = N[C@@H](Cc1ccccc1Cl)C(=O)O; Bta = N[C@@H](Cc1csc2ccccc12)C(=O)O; αAllylPro = C=CC[C@@]1(C(=O)O)CCCN1; tBuAla = CC(C)(C)C[C@H](N)C(=O)O; Cha = N[C@@H](CC1CCCCC1)C(=O)O
Mention the unit after the number when you answer.

Ac-[αAllylPro]D[tBuAla][B5(4)]DDAAFN[PyrS2″][Phe(2-Cl)][Bta][Ala(morpholin-4-yl)]-NH2 (staple 1-4, 4-11; also: later eluting staple isomer) [I-1134] | 6 nM

Below: the item to evaluate.
Input: Would you mind telling me what EC50 value was observed for Ac-[αAllylPro]D[Cha][B5(4)]DDAAFS[PyrS2″][Phe(2-Cl)][Bta]T-NH2 (staple 1-4, 4-11) [I-1135] ?
Output: 20 nM
